protocol.text: blockers of Trypanosoma cruzi growth in host cells – cell-based, NIH3T3 host, beta-gal parasite, luminescence, cherry-pick, confirmation (AID 651739)
condition.details: T. cruzi beta-gal in NIH3T3, GalScreen luminescence, 90 h; at 8.35 µM; hits give high values
Among all 5,600 compounds or so, about 4,100 (73%) were called active. Inconclusive results (about 4%) are left out. So high a share suggests a set chosen from earlier hits. Not all results are given here.
parameter.measured: inhibition (%)
Reply numerically in %, unit not repeated.

Examples with answers:
{"columns": ["structure.smiles", "inhibition (%)"],
 "data": [
  ["C[C@H](CO)N1C[C@H](C)[C@H](CN(C)S(=O)(=O)c2ccc(F)cc2)OCCCC[C@H](C)Oc2ccc(NS(=O)(=O)c3ccc(Cl)cc3)cc2C1=O", 92.1],
  ["Cc1ccc(S(=O)(=O)Nc2ccc3c(c2)C(=O)N([C@H](C)CO)C[C@H](C)[C@H](CN(C)C(=O)Nc2ccc(F)cc2)OCCCC[C@H](C)O3)cc1", 108]
]}

Now for a further molecule.
Enquiry: Recorded inhibition for Cc1ccc(S(=O)(=O)N(C)C[C@@H]2OCCCC[C@@H](C)Oc3ccc(NS(=O)(=O)c4ccc(F)cc4)cc3C(=O)N([C@H](C)CO)C[C@H]2C)cc1 , please?
Return: 97.7
